Provide the recorded percent inhibition of MET phosphorylation in SNU-5 cells for the entries that follow.
assayTarget: human MET, cell-surface expressed (human, UniProt P08581 25-1390)
Sequence (P08581 25-1390): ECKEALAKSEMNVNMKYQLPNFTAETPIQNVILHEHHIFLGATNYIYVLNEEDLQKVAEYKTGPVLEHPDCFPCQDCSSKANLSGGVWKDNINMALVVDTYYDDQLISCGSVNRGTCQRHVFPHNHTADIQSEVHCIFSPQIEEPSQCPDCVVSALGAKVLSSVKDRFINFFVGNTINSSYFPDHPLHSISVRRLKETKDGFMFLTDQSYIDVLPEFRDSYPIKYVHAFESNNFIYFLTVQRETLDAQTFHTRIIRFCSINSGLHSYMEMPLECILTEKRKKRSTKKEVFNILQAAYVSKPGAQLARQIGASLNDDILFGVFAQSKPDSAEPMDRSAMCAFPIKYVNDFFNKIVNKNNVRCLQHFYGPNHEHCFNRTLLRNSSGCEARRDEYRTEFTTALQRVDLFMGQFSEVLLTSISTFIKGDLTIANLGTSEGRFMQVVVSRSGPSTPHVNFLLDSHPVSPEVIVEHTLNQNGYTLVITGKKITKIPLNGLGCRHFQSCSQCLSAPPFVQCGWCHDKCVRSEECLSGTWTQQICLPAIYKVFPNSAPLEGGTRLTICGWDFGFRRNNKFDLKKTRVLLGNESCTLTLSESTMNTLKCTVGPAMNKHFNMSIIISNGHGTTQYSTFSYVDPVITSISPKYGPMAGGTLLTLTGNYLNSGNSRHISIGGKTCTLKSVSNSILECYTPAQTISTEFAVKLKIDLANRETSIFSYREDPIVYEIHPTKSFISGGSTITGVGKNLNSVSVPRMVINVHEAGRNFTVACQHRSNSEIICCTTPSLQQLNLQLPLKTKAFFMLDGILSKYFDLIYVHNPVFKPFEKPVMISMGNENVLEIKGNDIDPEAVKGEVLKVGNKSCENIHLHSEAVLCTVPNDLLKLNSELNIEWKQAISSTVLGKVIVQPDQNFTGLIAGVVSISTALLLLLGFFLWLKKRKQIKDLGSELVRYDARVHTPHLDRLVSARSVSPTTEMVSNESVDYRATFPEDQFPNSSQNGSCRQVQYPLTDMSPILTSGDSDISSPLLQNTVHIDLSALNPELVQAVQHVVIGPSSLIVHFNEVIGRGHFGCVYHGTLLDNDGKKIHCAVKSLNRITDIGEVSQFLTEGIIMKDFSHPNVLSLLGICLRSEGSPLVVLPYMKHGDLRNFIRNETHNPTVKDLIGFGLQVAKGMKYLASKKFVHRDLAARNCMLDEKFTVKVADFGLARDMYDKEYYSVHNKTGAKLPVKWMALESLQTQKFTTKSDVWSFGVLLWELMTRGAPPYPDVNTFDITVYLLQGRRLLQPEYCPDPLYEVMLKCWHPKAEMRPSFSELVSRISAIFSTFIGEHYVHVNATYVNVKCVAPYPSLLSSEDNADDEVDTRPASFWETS
protocolText: cell-based or functional assay
Unit % implied. Number only.

Per the records, this binder ( Ab238C (antibody, human IgG1, V domains shown) VH: QVTLKESGPGILQPSQTLSLTCTFSGFSLSTYGMGVAWIRQPSGKDLEWLANIWWDDVNYSNPSLKNRLTISKDTSNNQVFLQITNVDTAETATYYCARIGTSHIVDAWGQGASVTVSA VL: DIRMTQSPASLSASLGETVNIECLASEDIYSDLAWYQQKPGKSPQLLIYNANTLQNGVPSVFSGSGSGTQYSLKINNLHSEDVATYFCQQYNNYPPTFGGGTKLEIKR ) has percent inhibition of MET phosphorylation in SNU-5 cells equal to 19

Per the records, this binder ( Ab235C (antibody, human IgG1, V domains shown) VH: QVQLQQSGAELMKPGASVKISCKATGYTFSNYWIEWVKQRPGHGLEWIGEILPGSDYTKYNEKFKGKATFTADTSSNTAYMQLSSLTSEDSAVYYCARPSTIPPDCWGQGTTLTVSA VL: QIVLTQSPAIMSTSPGEKVTMTCSASSSVNYMFWYQQKAGSSPRLLIYDTFNLASGVPVRFSGSGSGTSYSLTISRMEAEDAATYYCQQWSIYPYTFGGGTKLEIKR ) has percent inhibition of MET phosphorylation in SNU-5 cells equal to 10

Per the records, this binder ( Ab235C-IgG2 (antibody, V domains shown) VH: QVQLQQSGAELMKPGASVKISCKATGYTFSNYWIEWVKQRPGHGLEWIGEILPGSDYTKYNEKFKGKATFTADTSSNTAYMQLSSLTSEDSAVYYCARPSTIPPDCWGQGTTLTVSA VL: QIVLTQSPAIMSTSPGEKVTMTCSASSSVNYMFWYQQKAGSSPRLLIYDTFNLASGVPVRFSGSGSGTSYSLTISRMEAEDAATYYCQQWSIYPYTFGGGTKLEIKR ) has percent inhibition of MET phosphorylation in SNU-5 cells equal to 64

Per the records, this binder ( Ab236C (antibody, human IgG1, V domains shown) VH: QAQLQQSGAELMKPGASVKISCKATGYIFSSYWIEWVKQRPGHGLEWIGEILPGSDFIKYSEKFKGKATFTADTSSNTAYMQLSNLTSEDSAVYYCARPSTVPPDCWGQGTTLTVSA VL: QIVLTQSPAIMSASPGEKVTMTCSASSSVSYMFWYQQKPGSSPRLLIYDTSDLASGVPVRFSGSGSGTSYSLTISRMEAEDAATYYCQQWSNYPYTFGGGTKLEIKR ) has percent inhibition of MET phosphorylation in SNU-5 cells equal to 17

Per the records, this binder ( Ab237C-IgG2 (antibody, V domains shown) VH: EVQLVESGGGLVQPGRSLKLSCAASGFTFSDSYMAWVRQAPTKGLEWVASISSDGGGTYYRDSVKGRFSISRDNAKSSLYLQMDSLRSEDTATYYCTTEGIYTTDYYPYCFNYWGHGVMVTVSA VL: DIQMTQSPGSLSASLGETVTIECLASADIHSNLAWYQQKPGNSPQLLIYYGNNLNDGVPSRFSGSGSGTQYSLKINSLQSEDVSIYFCQQSYDSPPTFGAGTKLEIKR ) has percent inhibition of MET phosphorylation in SNU-5 cells equal to 72

Per the records, this binder ( Ab239C-IgG2 (antibody, V domains shown) VH: EVQLVESGGGLVQPGRSLKLSCAASGFSFTDCYMAWVRQAPTKGLEWVASISSDGGGTYYRDSVKGRFTISRDNARSSLYLEMDSLRSEDTATYYCTTERYYDGTYYGYWYFDFWGPGTMVTVSA VL: GQFTLTQPKSVSGSLRSTITIPCVRSSGDIGDRYVSWYQQRLGRPPLNVIYAADQRPSEVSDRFSGSIDSSSNSASLTITDLQMDDEADYFCQSYDSNIDIVFGGGTKLEIKR ) has percent inhibition of MET phosphorylation in SNU-5 cells equal to 75

Data provenance: patent US20180057595A1
